// data source = patent US20250277001A1

Reported EC50 values for a set of molecules
target: human orexin type 2 receptor (hOX2R) (Homo sapiens); construct: expressed in transfected cells; assay: Measurement of orexin type 2 receptor agonist activity (CHO cells, FLIPR TETRA intracellular Ca2+); format: cell-based; conditions: CHO cells expressing hOX2R, Ca2+ fluorescence; read-out: hOX2 pEC50 (converted)
Sequence (O43614 whole entry): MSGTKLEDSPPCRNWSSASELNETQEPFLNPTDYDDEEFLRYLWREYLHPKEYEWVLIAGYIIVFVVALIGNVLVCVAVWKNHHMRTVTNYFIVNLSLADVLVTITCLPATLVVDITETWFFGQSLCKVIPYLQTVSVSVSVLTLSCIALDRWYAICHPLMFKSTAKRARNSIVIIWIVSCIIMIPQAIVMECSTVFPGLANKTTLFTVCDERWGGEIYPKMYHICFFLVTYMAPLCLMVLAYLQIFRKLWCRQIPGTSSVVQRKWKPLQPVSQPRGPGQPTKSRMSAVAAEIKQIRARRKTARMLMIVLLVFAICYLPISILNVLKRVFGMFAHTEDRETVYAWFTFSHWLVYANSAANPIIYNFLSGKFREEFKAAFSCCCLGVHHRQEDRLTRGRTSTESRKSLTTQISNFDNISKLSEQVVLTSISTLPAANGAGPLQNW
Where a SMILES comes first, the peptide text is derived from it. [ ]: non-standard residue; d: D form. Gly(NCH2CH2Ph) = O=C(O)CNCCc1ccccc1; Hyp = O=C(O)[C@@H]1C[C@@H](O)CN1; Aoc(2) = CCCCCC[C@H](N)C(=O)O; Phg = N[C@H](C(=O)O)c1ccccc1; Nle = CCCC[C@H](N)C(=O)O

Consider the worked cases shown below.
[
  {
    "molecule": "CCCC[C@H](NC(=O)[C@@H](NC(=O)[C@H](CC(C)C)NC(=O)[C@@H](NC(=O)CNC(=O)[C@@H](NC(=O)[C@H](C)NC(=O)[C@H](Cc1c[nH]cn1)NC(=O)[C@H](CC(N)=O)NC(=O)CNC(=O)[C@H](CO)NC(=O)[C@H](C)NC(=O)[C@H](Cc1c[nH]c2ccccc12)NC(=O)[C@@H](CC(C)C)NC(=O)[C@@H](N)Cc1ccccc1)c1ccccc1)[C@@H](C)CC)[C@@H](C)O)C(N)=O [compound 10] (H-F[dL]WASGNHA[Phg]GILT[Nle]-NH2)",
    "experimental-target": "human orexin type 2 receptor (hOX2R) (Homo sapiens)",
    "measurement-label": "EC50",
    "result": "< 100 pM"
  },
  {
    "molecule": "CCCC[C@H](NC(=O)[C@@H](NC(=O)[C@H](CC(C)C)NC(=O)[C@@H](NC(=O)CNC(=O)[C@H](C)NC(=O)[C@H](C)NC(=O)[C@H](Cc1c[nH]cn1)NC(=O)[C@H](CC(N)=O)NC(=O)CNC(=O)[C@H](CO)NC(=O)[C@@H](C)NC(=O)[C@@H](Cc1ccccc1)NC(=O)[C@H](CC(C)C)NC(=O)[C@@H](N)CC(C)C)[C@@H](C)CC)[C@@H](C)O)C(N)=O [compound 12] (H-LL[dF][dA]SGNHAAGILT[Nle]-NH2)",
    "experimental-target": "human orexin type 2 receptor (hOX2R) (Homo sapiens)",
    "measurement-label": "EC50",
    "result": "< 100 pM"
  }
]

For record CCCCCC[C@H](NC(=O)[C@@H](NC(=O)[C@H](CC(C)C)NC(=O)[C@@H](NC(=O)CNC(=O)[C@@H](NC(=O)[C@H](C)NC(=O)[C@@H]1C[C@@H](O)CN1C(=O)[C@H](CC(N)=O)NC(=O)CN(CCc1ccccc1)C(=O)[C@H](CCCNC(=N)N)NC(=O)[C@H](CCCNC(=N)N)NC(=O)[C@@H]1C[C@@H](O)CN1C(=O)[C@@H]1C[C@@H](O)CN1C(=O)[C@@H]1C[C@@H](O)CN1)c1ccccc1)[C@@H](C)CC)[C@@H](C)O)C(N)=O [compound 15] (H-[Hyp][Hyp][Hyp]RR[Gly(NCH2CH2Ph)]N[Hyp]A[Phg]GILT[Aoc(2)]-NH2) the listed EC50 is < 100 pM
